Values from patent US5420289A

tested on: synthesis of LTB4 by rat glycogen-elicited polymorphonuclear leukocytes (PMN); assay: inhibition of LTB4 synthesis by rat glycogen-elicited PMN (Example 72); assay type: cell-based, rat (female Wistar); conditions: Leukocyte, at 10 mM, negative number denotes potentiation
Below, each of the compounds is paired with its reported inhibition at 10000 µM value.
Hi! Could you send only the number? It should be in %, unit omitted.

Below, each entry is followed by its recorded inhibition at 10000 µM result.
For CCC1(CC(=O)O)OCCc2c1[nH]c1ccc(OCc3ccc4ccccc4n3)cc21 (stereo not shown) the compound record lists inhibition at 10000 µM as 96

Item: `CC1(C)OCCc2c1[nH]c1ccc(OCc3ccc4ccccc4n3)cc21` | inhibition at 10000 µM: 91

Recorded inhibition at 10000 µM (compound Cc1c(CC(=O)O)c2cc(OCc3ccc4ccccc4n3)ccc2n1Cc1ccc(Cl)cc1 [Example 16, hydrate] ): 96

The reported inhibition at 10000 µM of the compound CCCCCCn1c(C)c(CC(=O)O)c2cc(OCc3ccc4ccccc4n3)ccc21 [Example 30, hydrate] was 90

***
For `CC1=C(CC(=O)O)c2cc(OCc3ccc4ccccc4n3)ccc2/C1=C\c1ccc(Cl)cc1` the compound record lists inhibition at 10000 µM as 96

For record CCc1cc(OCc2ccc3ccccc3n2)cc2c3c([nH]c12)C(CC)(CC(=O)O)OCC3 (stereo not shown) the listed inhibition at 10000 µM is 91

The reported value for Cc1c(CC(=O)O)c2cc(OCc3ccc4ccccc4n3)ccc2n1Cc1ccc(F)cc1 [Example 24, hemihydrate] in terms of inhibition at 10000 µM is 97
